Biological target: T1, chromodomain of CBX7 (human, UniProt O95931 8-62)
T1 sequence (looked up): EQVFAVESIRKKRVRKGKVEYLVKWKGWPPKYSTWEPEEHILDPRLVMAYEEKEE
Assay: AlphaScreen or HTRF
pIC50: −log10 of the molar value. Square brackets hold non-standard residues; d marks the D form. * marks the point of attachment. Lys(Me3) = C[N+](C)(C)CCCC[C@H](N)C(=O)O; Bz = O=C(c1ccccc1)*
Experimental readout: pIC50

{"Binder": "Bz-FAL[Lys(Me3)]S-OMe [compound 5]", "Experimental readout": "pIC50", "Number": 5.59}
